test: in vivo; settings: cynomolgus monkey, po, 5 mg/kg
Measured property: Cmax

State, in one line, measured Cmax of O=C(O)[C@@H](Cc1cccc(S(=O)(=O)N(Cc2ccc(F)c(C[C@H](C(=O)O)[C@H]3CCNC3)c2)Cc2ccc(F)c(C[C@H](C(=O)O)[C@H]3CCNC3)c2)c1)[C@H]1CCNC1
1690 ng/mL

Reference source for all entries: patent EP4714939A1
